- System: HepG2 viability, CellTiter-Glo ATP luminescence, 72 h
- Assay protocol: viability loss in human hepatoma cells – cell-based, CellTiter-Glo luminescence, cherry-pick, set 2, cytotoxicity control, dose response (AID 743395)
Value type: AC35

• CC(=O)NC(c1ccc(Cl)cc1Cl)c1ccc2cccnc2c1O (stereo not given) = 0.921 µM
• C[C@@H]1CN([C@@H](C)CO)C(=O)c2cc(NS(=O)(=O)c3ccc(Cl)cc3)ccc2O[C@@H]1CN(C)Cc1ccc(C(F)(F)F)cc1 = 16.4 µM
• COc1cc(C(=O)Nc2ccccc2C(=O)Nc2ccccn2)cc(OC)c1OC = 4.9 µM
• CN(C)CCNc1ccc2ncn3c4ccc(O)cc4c(=O)c1c23 = 2.3 µM
• Oc1cccc(/C=N/Nc2ccc(Cl)nn2)c1O = 7.7 µM
• Cc1ccc(-n2nnnc2SCC(=O)NC(C(=O)O)(c2ccccc2)c2ccccc2)cc1C = 15 µM
• COC(=O)C1=CN(c2ccc(OC)cc2OC)C(N)=C(C#N)C1c1ccccc1F (stereo not given) = 6.17 µM
• CC1CCN(C(=O)C2COc3ccccc3O2)CC1 (stereo not given) = 21.8 µM
• CN1c2ccc(-c3ccc(F)cc3)cc2[C@H]2[C@H](CCN2S(=O)(=O)c2cccc(F)c2)[C@H]1CO = 17.2 µM
• Cc1c(C(=O)N/N=C/c2c(O)ccc3ccccc23)nnn1-c1nonc1N = 1.32 µM
